Exercise: for every item that follows, state its recorded Mean LC50 PPM.
# Test system: Green Peach Aphid (Myzus persicae, MYZUPE)
# METHOD DESCRIPTION: Green Peach Aphid (GPA) foliar spray bioassay on cabbage seedlings
# Assay type: in vivo
# TEST PARAMETERS: cabbage seedlings, live aphids counted three days after treatment, Abbott-corrected % control
One number for each entry, in PPM.

Record excerpt, results attached:
MOLECULE	ASSAY VALUE
CN(C(=O)CS(C)(=O)=O)c1cn(-c2cccnc2)nc1Cl	0.52
CC(C)(C(=O)Nc1cn(-c2cccnc2)nc1Cl)S(C)(=O)=O	2.17
CC(C(=O)Nc1cn(-c2cccnc2)nc1Cl)S(C)(=O)=O (centres unmarked)	0.07

Provide reported Mean LC50 PPM for each item, in the same order as listed.
1. CC(C(=O)N(C)c1cn(-c2cccnc2)nc1Cl)S(C)(=O)=O (centres unmarked)
2. CS(=O)(=O)CC(=O)Nc1cn(-c2cccnc2)nc1Cl

Outgoing:
1: 0.29; 2: 0.05

Values from patent US20230040279A1
